- target: human 5-HT2A receptors (Homo sapiens)
- Sequence (P28223 whole entry): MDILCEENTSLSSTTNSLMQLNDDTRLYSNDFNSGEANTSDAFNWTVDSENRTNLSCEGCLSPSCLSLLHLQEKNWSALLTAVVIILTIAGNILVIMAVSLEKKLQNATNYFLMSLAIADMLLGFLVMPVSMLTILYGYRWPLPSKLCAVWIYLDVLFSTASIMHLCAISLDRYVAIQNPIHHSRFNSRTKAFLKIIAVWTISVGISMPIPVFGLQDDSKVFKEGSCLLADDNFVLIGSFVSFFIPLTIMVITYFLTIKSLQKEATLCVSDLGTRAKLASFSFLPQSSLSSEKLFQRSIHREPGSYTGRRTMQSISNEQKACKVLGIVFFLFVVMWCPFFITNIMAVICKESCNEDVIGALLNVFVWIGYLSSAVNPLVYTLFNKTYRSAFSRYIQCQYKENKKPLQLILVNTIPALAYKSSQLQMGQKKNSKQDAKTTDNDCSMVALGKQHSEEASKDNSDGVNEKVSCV
- procedure-text: Functional activity, FLIPR calcium assay, CHO cells expressing human 5-HT2A
- test-context: CHO cells, FLIPR, Fluo-3-AM; read-out: h5-HT2A EC50
Where a name gives a salt, the structure may show the parent alone.
property: pEC50
Just so you know, pEC50 here is -log10 of the concentration in molar units; reply with that number alone.

Query string: Can you look up pEC50 on human 5-HT2A receptors (Homo sapiens) for Cc1nn(C[C@H](C)N)c2cc(F)c(F)cc12 [Example 3, Fumarate] ?
Result string: 6.82

Query string: Can you look up pEC50 on human 5-HT2A receptors (Homo sapiens) for CCc1nn(C[C@H](C)N)c2cc(Br)ccc12 [Example 7, Fumarate] ?
Result string: 6.13

Query string: Can you look up pEC50 on human 5-HT2A receptors (Homo sapiens) for CCc1nn(C[C@H](C)N)c2cc(SC)ccc12 [Example 8, Fumarate] ?
Result string: 6.55

Query string: Can you look up pEC50 on human 5-HT2A receptors (Homo sapiens) for Cc1nn(C[C@H](C)N)c2cc(Cl)c(F)cc12 [Example 4, Fumarate] ?
Result string: 6.86

Query string: Can you look up pEC50 on human 5-HT2A receptors (Homo sapiens) for CCc1nn(C[C@H](C)N)c2cc(F)ccc12 [Example 6, Fumarate] ?
Result string: 6.54

Query string: Can you look up pEC50 on human 5-HT2A receptors (Homo sapiens) for COc1ccc2c(C)nn(C[C@H](C)N)c2c1 [Example 2, Fumarate] ?
Result string: 6.97
